Test system: Pseudomonas aeruginosa
Assay: In vitro antimicrobial activity against Pseudomonas aeruginosa GC 1544 strain
Type: functional
Conditions: Pseudomonas aeruginosa; read-out: MIC
For each record, write down the corresponding MIC.
// return numeric value only (unit: µg/mL, not printed)

Reported MIC for C[C@@H](O)[C@H]1C(=O)N2C(C(=O)O)=C(SCCNC=N)C[C@H]12.O [IMIPENEM] was 16

Reported MIC for C[C@H]1C(S[C@@H]2CCO[C@@H]2CNC(=O)[C@@H](N)Cc2ccccc2)=C(C(=O)O)N2C(=O)[C@H]([C@@H](C)O)C12 (stereo not given in full) was 128

Reported MIC for C[C@H]1C(S[C@@H]2CCO[C@@H]2CNC(=O)[C@H](N)Cc2ccccc2)=C(C(=O)O)N2C(=O)[C@H]([C@@H](C)O)C12 (stereo not given in full) was 128

Reported MIC for C[C@H]1C(S[C@@H]2CCO[C@@H]2CNC(=O)CN)=C(C(=O)O)N2C(=O)[C@H]([C@@H](C)O)C12 (stereo not given in full) was 64

Reported MIC for C[C@@H](N)C(=O)NC[C@H]1COC[C@H]1SC1=C(C(=O)O)N2C(=O)[C@H]([C@@H](C)O)C2[C@H]1C (stereo not given in full) was 32

Hello, the source for this data is ChEMBL document CHEMBL1130465, in case you need it.
